Experiment: in vivo
Settings: ICR, mouse, po, 5 mg/kg
QUANTITY: AUC (ng·h/mL)
Write down the numeric answer in ng·h/mL and omit the unit.

Form field: reported AUC of N#Cc1ccc(-c2cc(=O)c3ccc4[nH]c(C(F)(F)F)nc4c3o2)cc1
68500

* * *

Item-by-item account of half-life
Assay: Microsomal Intrinsic Clearance (human)
Conditions: liver microsomes, NADPH-dependent T1/2, Human microsomes, with NADPH

Use these answered entries as a reference point.
{"MOLECULE": "N#Cc1ccc(-c2cc(=O)c3ccc4[nH]c(C(F)(F)F)nc4c3o2)cc1", "half-life": "> 3 h"}
{"MOLECULE": "Cn1c(=O)[nH]c2ccc3c(=O)cc(-c4ccc(C#N)cc4)oc3c21", "half-life": "1.27 h"}

# ---- query molecule ----
Look at this molecule and give its reported half-life. Cc1ncc2n1-c1ccc(Cl)cc1C(c1ccccc1F)=NC2 [Midazolam, reference compound]
0.0753 h

* * *

Experiment: Microsomal Intrinsic Clearance (human)
Settings: liver microsomes, NADPH-dependent CLint, Human microsomes, with NADPH
QUANTITY: microsomal CLint (µL/min/mg)
Output spec: scalar in µL/min/mg, unitless text.

{"COMPOUND": "Cc1ncc2n1-c1ccc(Cl)cc1C(c1ccccc1F)=NC2 [Midazolam, reference compound]", "QUANTITY": "microsomal CLint", "NUMERIC VALUE": 511}

Name the reported microsomal CLint value associated with the compound Cn1c(=O)[nH]c2ccc3c(=O)cc(-c4ccc(C#N)cc4)oc3c21
30.3

* * *

Recorded half-life for the following compounds
Experiment: Microsomal Intrinsic Clearance (mouse)
Details: liver microsomes, NADPH-dependent T1/2, Mouse microsomes, with NADPH
Give just the number in min; leave the unit off.

{"COMPOUND": "Cc1ncc2n1-c1ccc(Cl)cc1C(c1ccccc1F)=NC2 [Midazolam, reference compound]", "NUMERIC VALUE": 2.1}

Next up:
Entry Cn1c(=O)[nH]c2ccc3c(=O)cc(-c4ccc(C#N)cc4)oc3c21 : reported half-life = ?
10

* * *

Test: Hepatocyte Stability (human)
Conditions: hepatocytes
Collected half-life values appear next to each entry.
All answers are understood in h, so give the number only.

{"MOLECULE": "Cc1ncc2n1-c1ccc(Cl)cc1C(c1ccccc1F)=NC2 [Midazolam, reference compound]", "NUMERIC VALUE": 0.595}

Let us examine a further case.
What does the data say about its half-life? Entry: Cn1c(=O)[nH]c2ccc3c(=O)cc(-c4ccc(C#N)cc4)oc3c21 [RM-CN]
2.22

* * *

microsomal CLint: recorded values
Experiment: Microsomal Intrinsic Clearance (mouse)
Conditions: liver microsomes, NADPH-free CLint, Mouse microsomes, NADPH-free

Please review the entries below; each comes with its answer.
{"COMPOUND": "Cc1ncc2n1-c1ccc(Cl)cc1C(c1ccccc1F)=NC2 [Midazolam, reference compound]", "microsomal CLint": "< 12.8 µL/min/mg"}
{"COMPOUND": "N#Cc1ccc(-c2cc(=O)c3ccc4[nH]c(C(F)(F)F)nc4c3o2)cc1", "microsomal CLint": "< 12.8 µL/min/mg"}

Let's switch to this compound now.
Look up microsomal CLint for this compound: Cn1c(=O)[nH]c2ccc3c(=O)cc(-c4ccc(C#N)cc4)oc3c21
< 12.8 µL/min/mg

* * *

Target: TrkB (Rattus norvegicus, UniProt Q63604)
Sequence (Q63604 32-821): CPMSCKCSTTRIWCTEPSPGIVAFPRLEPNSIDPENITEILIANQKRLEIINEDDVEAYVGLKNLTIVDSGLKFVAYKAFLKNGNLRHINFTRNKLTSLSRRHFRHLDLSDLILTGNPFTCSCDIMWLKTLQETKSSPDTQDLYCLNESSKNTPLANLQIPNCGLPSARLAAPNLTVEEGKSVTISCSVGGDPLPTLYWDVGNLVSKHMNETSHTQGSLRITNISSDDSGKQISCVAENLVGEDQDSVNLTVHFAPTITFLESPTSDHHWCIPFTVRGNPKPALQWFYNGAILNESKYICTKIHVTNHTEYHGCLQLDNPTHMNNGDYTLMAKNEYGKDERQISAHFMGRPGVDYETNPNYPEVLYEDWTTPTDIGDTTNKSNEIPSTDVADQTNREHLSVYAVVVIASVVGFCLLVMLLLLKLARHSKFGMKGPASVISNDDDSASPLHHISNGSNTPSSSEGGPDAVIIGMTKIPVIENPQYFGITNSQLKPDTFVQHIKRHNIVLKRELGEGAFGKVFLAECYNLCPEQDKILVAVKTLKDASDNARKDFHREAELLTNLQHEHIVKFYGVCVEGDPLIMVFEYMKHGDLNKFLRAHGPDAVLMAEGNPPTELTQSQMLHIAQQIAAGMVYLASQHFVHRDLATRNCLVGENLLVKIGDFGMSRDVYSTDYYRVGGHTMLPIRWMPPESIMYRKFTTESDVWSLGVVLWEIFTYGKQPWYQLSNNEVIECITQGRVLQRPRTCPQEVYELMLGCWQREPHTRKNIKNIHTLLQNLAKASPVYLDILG
Assay: TrkB activation in rat TrkB stably transfected SN56 cells (T48), immunoblotting
Details: treated 15 min, immunoblotting, read-out: EC50 of p-TrkB 706 and 816 activation
QUANTITY: EC50 (µM)
Give just the numeric value; µM need not be written.

For N#Cc1ccc(-c2cc(=O)c3ccc4[nH]c(C(F)(F)F)nc4c3o2)cc1 , what is its reported EC50?
0.0216

* * *

Test: Microsomal Intrinsic Clearance (human)
Conditions: liver microsomes, NADPH-free CLint, Human microsomes, NADPH-free
QUANTITY: microsomal CLint

Please review the following examples before continuing.
{"COMPOUND": "Cc1ncc2n1-c1ccc(Cl)cc1C(c1ccccc1F)=NC2 [Midazolam, reference compound]", "RESULT": "< 12.8 µL/min/mg"}
{"COMPOUND": "N#Cc1ccc(-c2cc(=O)c3ccc4[nH]c(C(F)(F)F)nc4c3o2)cc1", "RESULT": "< 12.8 µL/min/mg"}

What does the record list as microsomal CLint for Cn1c(=O)[nH]c2ccc3c(=O)cc(-c4ccc(C#N)cc4)oc3c21 ?
< 12.8 µL/min/mg

* * *

Assay: in vivo
Conditions: ICR, mouse, iv, 2 mg/kg
QUANTITY: Tmax (min)
Provide the reading as a plain figure in min.

Form field: reported Tmax of N#Cc1ccc(-c2cc(=O)c3ccc4[nH]c(C(F)(F)F)nc4c3o2)cc1
4.8

* * *

Test: Microsomal Intrinsic Clearance (mouse)
Settings: liver microsomes, NADPH-dependent CLint, Mouse microsomes, with NADPH
QUANTITY: microsomal CLint (µL/min/mg)
Numbers only; they are read as µL/min/mg.

{"COMPOUND": "Cc1ncc2n1-c1ccc(Cl)cc1C(c1ccccc1F)=NC2 [Midazolam, reference compound]", "QUANTITY": "microsomal CLint", "MEASURE UNIT": "µL/min/mg", "NUMERIC VALUE": 1100}

Now for a further compound.
For the compound shown here, Cn1c(=O)[nH]c2ccc3c(=O)cc(-c4ccc(C#N)cc4)oc3c21 , give the reported microsomal CLint.
231

* * *

Test: Microsomal Intrinsic Clearance (human)
Settings: liver microsomes, NADPH-free T1/2, Human microsomes, NADPH-free
Listing: half-life of selected molecules

// below: answered molecules
{"MOLECULE": "N#Cc1ccc(-c2cc(=O)c3ccc4[nH]c(C(F)(F)F)nc4c3o2)cc1", "RESULT": "> 3 h"}
{"MOLECULE": "Cn1c(=O)[nH]c2ccc3c(=O)cc(-c4ccc(C#N)cc4)oc3c21", "RESULT": "> 3 h"}

Now let's try a different one.
Fill in: half-life of Cc1ncc2n1-c1ccc(Cl)cc1C(c1ccccc1F)=NC2 [Midazolam, reference compound] is ___
> 3 h

* * *

Experiment: BBB-PAMPA Permeability
Assay type: in vitro ADME
Settings: Test Conc. 10 μM
QUANTITY: recovery at 10 μM

{"COMPOUND": "N#Cc1ccc(-c2cc(=O)c3ccc4[nH]c(C(F)(F)F)nc4c3o2)cc1 [CF3-CN]", "RESULT": "89.9%"}

// moving on: another record for recovery at 10 μM
What value of recovery at 10 μM has been recorded for this entry: CC(C)NCC(O)COc1ccc(CC(N)=O)cc1 (centres unmarked) [Atenolol, reference compound]
84.6%

* * *

Test: Hepatocyte Stability (human)
Conditions: hepatocytes
Reported values of hepatocyte CLint for individual entries
Supply the numeric figure in µL/min/1e6 cells, leaving out any unit text.

{"MOLECULE": "Cn1c(=O)[nH]c2ccc3c(=O)cc(-c4ccc(C#N)cc4)oc3c21", "hepatocyte CLint / µL/min/1e6 cells": 10.5}

Kindly review the next molecule as well.
Can you look up the measured hepatocyte CLint of Cc1ncc2n1-c1ccc(Cl)cc1C(c1ccccc1F)=NC2 [Midazolam, reference compound] for me?
38.8

* * *

Experiment: in vivo
Settings: male, ICR, mouse, iv, 2 mg/kg, B/P Ratio, Mean
QUANTITY: Kp at 2 h
Output: the number by itself.

Recorded Kp at 2 h of N#Cc1ccc(-c2cc(=O)c3ccc4[nH]c(C(F)(F)F)nc4c3o2)cc1 , please.
0.01

* * *

Recorded half-life by entry
Test: Plasma Stability (mouse)
Format: in vitro ADME
Record the value in h, omitting the unit from your answer.

Report half-life for CC(C)[N+](C)(CCOC(=O)C1c2ccccc2Oc2ccccc21)C(C)C [Propantheline, reference compound] please.
0.37

Which value of half-life has been reported for Cn1c(=O)[nH]c2ccc3c(=O)cc(-c4ccc(C#N)cc4)oc3c21 in the records?
5.75

* * *

Assay: in vivo
Conditions: male, ICR, mouse, iv, 2 mg/kg, B/P Ratio, individual animal
QUANTITY: Kp at 1 h
The response must contain the number and no unit.

For the compound shown here, N#Cc1ccc(-c2cc(=O)c3ccc4[nH]c(C(F)(F)F)nc4c3o2)cc1 [CF3-CN] , give the reported Kp at 1 h.
0.02

* * *

Experiment: in vivo
Settings: male, ICR, mouse, iv, 2 mg/kg, B/P Ratio, individual animal
QUANTITY: Kp at 2 h
Form: value (number only, do not type unit).

Item N#Cc1ccc(-c2cc(=O)c3ccc4[nH]c(C(F)(F)F)nc4c3o2)cc1 has what recorded Kp at 2 h?
0.01

* * *

Experiment: Hepatocyte Stability (mouse)
Conditions: hepatocytes
QUANTITY: hepatocyte CLint (µL/min/1e6 cells)
// units = µL/min/1e6 cells; emit number, no label

{"MOLECULE": "Cn1c(=O)[nH]c2ccc3c(=O)cc(-c4ccc(C#N)cc4)oc3c21 [RM-CN]", "MEASURE UNIT": "µL/min/1e6 cells", "NUMERIC VALUE": 5.04}

Below: the item to evaluate.
I'd like to know its hepatocyte CLint. The molecule in question is Cc1ncc2n1-c1ccc(Cl)cc1C(c1ccccc1F)=NC2 [Midazolam, reference compound]
35.1
